The measurements presented in this section are drawn from PubChem BioAssay.

Target: NADPH oxidase 4 (Homo sapiens) (UniProt Q9NPH5)
Sequence (Q9NPH5 whole entry, looked up): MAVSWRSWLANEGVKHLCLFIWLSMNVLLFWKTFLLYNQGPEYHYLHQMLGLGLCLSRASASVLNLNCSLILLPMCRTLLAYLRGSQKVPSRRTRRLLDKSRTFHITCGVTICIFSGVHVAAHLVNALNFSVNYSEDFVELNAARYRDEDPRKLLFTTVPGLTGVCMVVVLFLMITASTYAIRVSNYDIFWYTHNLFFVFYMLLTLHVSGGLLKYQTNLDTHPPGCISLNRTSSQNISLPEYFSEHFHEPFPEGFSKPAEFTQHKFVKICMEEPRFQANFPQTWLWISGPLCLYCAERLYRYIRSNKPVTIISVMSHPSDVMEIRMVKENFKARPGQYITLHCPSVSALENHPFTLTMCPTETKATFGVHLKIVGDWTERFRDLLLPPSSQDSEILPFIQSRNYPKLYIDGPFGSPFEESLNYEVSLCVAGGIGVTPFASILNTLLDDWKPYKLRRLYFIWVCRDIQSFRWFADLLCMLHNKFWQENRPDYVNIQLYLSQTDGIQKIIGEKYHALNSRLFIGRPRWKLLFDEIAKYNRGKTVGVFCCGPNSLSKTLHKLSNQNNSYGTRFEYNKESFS
Experiment: compounds shifting NOX4 Amplex Red fluorescence – cell-based, HEK293-NOX4, tetracycline-induced, NOX inhibitor project, primary screen (AID 1160)
Settings: HEK293-NOX4, Amplex Red H2O2 fluorescence, 45 min; higher = more signal, called active from +8 up or from −8 down
The label depends only on z-score: y if it is at least 0.5, n if it is smaller.

-- ask State whether the measured z-score reaches 0.5, counting equality as reaching it, for O=C1C2C=CC(C(O)C3CCCCC3)N(n3cnnc3)C2C(=O)N1Cc1ccccc1 (stereo unspecified)
-- reply n

-- ask State whether the measured z-score reaches 0.5, counting equality as reaching it, for CCCCCCc1nc(Cc2cc(OC)c(OC)c(OC)c2)cc2c1[Si](C(C)C)(C(C)C)O[C@H]2c1ccccc1
-- reply n

-- ask State whether the measured z-score reaches 0.5, counting equality as reaching it, for C=CCOC(=O)[C@H]1[C@@H]2C(=O)O[C@@H](c3ccccc3)[C@@H](c3ccccc3)N2[C@@H](c2ccc(OCCOC(=O)[C@@H]3C[C@@H]4C(=O)N[C@@H](CCCC[N+](C)(C)C)C(=O)N4[C@@H]3c3ccc(O)cc3)cc2)[C@]12C(=O)Nc1ccc(I)cc12
-- reply n

-- ask State whether the measured z-score reaches 0.5, counting equality as reaching it, for CN(C)CCCC[C@@H]1NC(=O)[C@H]2C[C@@H](C(=O)O)[C@@H](c3ccc(O)cc3)N2C1=O
-- reply n

-- ask State whether the measured z-score reaches 0.5, counting equality as reaching it, for COc1ccc([Si](C)(C)[C@@H]2[C@@H](CC(=O)N3CCC[C@H]3CO)O[C@]3(C(=O)N(Cc4cccc(N5CCCCC5=O)c4)c4ccccc43)[C@H]2C)cc1
-- reply y

-- ask State whether the measured z-score reaches 0.5, counting equality as reaching it, for COc1ccc([Si](C)(C)[C@H]2[C@H](CCO)O[C@@]3(C(=O)N(Cc4cccc(N(C=O)c5ccccc5)c4)c4ccccc43)[C@@H]2C)cc1
-- reply n
